Test system: human hepatic cancer cells (HuH-7)
assay_method_text: Antiproliferative effect on cancer cells (in vitro), sulforhodamine B method, HuH-7
Format: cell-based
condition_parameters: HuH-7 cells, 5 days incubation with test compound
Where a name gives a salt, the structure may show the parent alone.
Quick reference for IC50 among some compounds
result_type: IC50

compound: Cc1c(Oc2ccc(N(C)C(=O)c3ccc(C(F)(F)F)cc3)cn2)ccc2c1cc(C(=O)N1CCN(Cc3ccc(C(C)C)cc3)CC1)n2C [Example 428, hydrobromide]
result: < 10 nM
--
compound: CCOc1ccc(CN2CCN(C(=O)c3cc4cc(Oc5ccc(N(C)C(=O)c6ccc(C(F)(F)F)cc6)c(C)n5)ccc4n3C)CC2)cc1 [Example 368, hydrobromide]
result: < 10 nM
--
compound: Br.CN(C(=O)c1ccc(OC(F)(F)F)cc1)c1ccc(Oc2ccc3cc(C(=O)N4CCN(Cc5ccc(OC(F)F)cc5)CC4)n(C)c3c2)nc1 [Example 473, hydrobromide]
result: < 10 nM
